Target Of Assay: MR (Homo sapiens)
Sequence (P08235 672-984): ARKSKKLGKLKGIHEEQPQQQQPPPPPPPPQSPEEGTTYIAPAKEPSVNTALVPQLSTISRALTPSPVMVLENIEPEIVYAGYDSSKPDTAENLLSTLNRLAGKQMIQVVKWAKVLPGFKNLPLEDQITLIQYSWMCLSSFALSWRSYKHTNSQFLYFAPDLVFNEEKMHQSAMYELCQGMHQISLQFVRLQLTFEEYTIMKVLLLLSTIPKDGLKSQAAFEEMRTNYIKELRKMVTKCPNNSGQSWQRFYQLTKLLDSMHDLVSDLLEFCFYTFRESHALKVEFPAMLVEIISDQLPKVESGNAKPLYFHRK
Assay: Functional assay of mineralocorticoid receptor antagonism (mammalian two hybrid luciferase reporter, 293T cells, aldosterone-stimulated)
Condition Description: antagonism of MR trans-activation induced by 0.4 nM aldosterone
pIC50: −log10 of the molar value.
Readout Kind: pIC50

chemical_smiles=Cc1cccc(-c2ccc3c(c2C)NC(=O)CO3)c1 readout_kind=pIC50 limit_operator== test_result=7.33
chemical_smiles=CC(=O)Oc1ccc(CCc2cc(C)c3c(c2)NC(=O)CO3)c(C)c1 readout_kind=pIC50 limit_operator== test_result=8.89
chemical_smiles=Cc1ccccc1/C=C/c1ccc2c(c1)NC(=O)CO2 readout_kind=pIC50 limit_operator== test_result=7.27
chemical_smiles=Cc1c(-c2csc(-c3ccccc3C(F)(F)F)n2)ccc2c1NC(=O)CO2 readout_kind=pIC50 limit_operator== test_result=6.79
chemical_smiles=CC(=O)Oc1ccc(CCc2ccc3c(c2)NC(=O)CO3)c(C)c1 readout_kind=pIC50 limit_operator=> test_result=8.70

###

Target Of Assay: GR (Homo sapiens)
Construct: expressed in transfected cells; host or cells: COS-7 cells
Sequence (P04150 541-777): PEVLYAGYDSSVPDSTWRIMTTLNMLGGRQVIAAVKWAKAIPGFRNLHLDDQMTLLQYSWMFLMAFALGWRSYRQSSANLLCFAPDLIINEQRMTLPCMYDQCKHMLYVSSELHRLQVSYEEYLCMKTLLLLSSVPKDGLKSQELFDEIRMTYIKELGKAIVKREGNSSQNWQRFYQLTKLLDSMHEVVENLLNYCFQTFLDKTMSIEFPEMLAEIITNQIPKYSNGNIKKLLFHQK
Assay: Functional assay of glucocorticoid receptor antagonism (Gal4-GR-LBD luciferase reporter, COS-7 cells, dexamethasone-stimulated)
Assay type: cell-based
Condition Description: antagonism of GR trans-activation induced by 10 nM dexamethasone
pIC50: −log10 of the molar value.
Readout Kind: pIC50

chemical_smiles=CC(=O)Oc1ccc(CCc2cc(C)c3c(c2)NC(=O)CO3)c(C)c1 target_of_assay="GR (Homo sapiens)" readout_kind=pIC50 limit_operator== test_result=6.68
chemical_smiles=Cc1c(-c2csc(-c3ccccc3C(F)(F)F)n2)ccc2c1NC(=O)CO2 target_of_assay="GR (Homo sapiens)" readout_kind=pIC50 limit_operator=< test_result=5.00

###

Target Of Assay: PR (Homo sapiens, UniProt P06401)
Sequence (P06401 whole entry): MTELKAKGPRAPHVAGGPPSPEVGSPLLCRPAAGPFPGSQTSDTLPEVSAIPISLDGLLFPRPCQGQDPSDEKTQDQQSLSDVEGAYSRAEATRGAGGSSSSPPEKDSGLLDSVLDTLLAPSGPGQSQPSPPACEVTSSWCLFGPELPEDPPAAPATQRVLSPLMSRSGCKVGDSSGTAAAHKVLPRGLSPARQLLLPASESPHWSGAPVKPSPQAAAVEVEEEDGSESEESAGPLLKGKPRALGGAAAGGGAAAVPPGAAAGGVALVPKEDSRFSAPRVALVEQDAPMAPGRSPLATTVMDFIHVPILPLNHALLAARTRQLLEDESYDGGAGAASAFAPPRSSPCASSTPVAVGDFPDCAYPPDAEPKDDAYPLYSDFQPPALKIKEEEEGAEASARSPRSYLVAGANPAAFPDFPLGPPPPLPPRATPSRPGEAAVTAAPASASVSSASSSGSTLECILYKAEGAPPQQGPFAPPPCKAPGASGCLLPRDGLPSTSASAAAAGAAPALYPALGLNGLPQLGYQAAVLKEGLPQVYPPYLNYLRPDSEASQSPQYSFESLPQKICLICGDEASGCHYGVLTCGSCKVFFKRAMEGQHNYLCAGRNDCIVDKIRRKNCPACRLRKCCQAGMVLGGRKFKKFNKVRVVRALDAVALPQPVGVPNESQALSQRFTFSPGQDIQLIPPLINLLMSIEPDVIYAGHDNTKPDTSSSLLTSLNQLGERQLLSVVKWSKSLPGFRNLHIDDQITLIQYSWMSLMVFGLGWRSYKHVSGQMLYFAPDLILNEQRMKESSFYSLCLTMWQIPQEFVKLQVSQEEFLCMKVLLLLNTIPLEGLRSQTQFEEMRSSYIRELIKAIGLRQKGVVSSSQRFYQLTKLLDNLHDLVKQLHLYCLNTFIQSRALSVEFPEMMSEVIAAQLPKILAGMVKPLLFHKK
Assay: Functional assay of progesterone receptor antagonism (progesterone-induced alkaline phosphatase activity in T-47D cells)
Condition Description: antagonism of PR activity induced by 3 nM progesterone
pIC50: −log10 of the molar value.
Listed here are molecules together with their documented pIC50.
Readout Kind: pIC50

chemical_smiles=Cc1c(-c2csc(-c3ccccc3C(F)(F)F)n2)ccc2c1NC(=O)CO2 target_of_assay="PR (Homo sapiens, UniProt P06401)" readout_kind=pIC50 limit_operator=< test_result=4.70
chemical_smiles=Cc1cccc(-c2ccc3c(c2C)NC(=O)CO3)c1 target_of_assay="PR (Homo sapiens, UniProt P06401)" readout_kind=pIC50 limit_operator== test_result=7.66

###

Target Of Assay: AR (Homo sapiens, UniProt P10275)
Sequence (P10275 whole entry Q868H, form open): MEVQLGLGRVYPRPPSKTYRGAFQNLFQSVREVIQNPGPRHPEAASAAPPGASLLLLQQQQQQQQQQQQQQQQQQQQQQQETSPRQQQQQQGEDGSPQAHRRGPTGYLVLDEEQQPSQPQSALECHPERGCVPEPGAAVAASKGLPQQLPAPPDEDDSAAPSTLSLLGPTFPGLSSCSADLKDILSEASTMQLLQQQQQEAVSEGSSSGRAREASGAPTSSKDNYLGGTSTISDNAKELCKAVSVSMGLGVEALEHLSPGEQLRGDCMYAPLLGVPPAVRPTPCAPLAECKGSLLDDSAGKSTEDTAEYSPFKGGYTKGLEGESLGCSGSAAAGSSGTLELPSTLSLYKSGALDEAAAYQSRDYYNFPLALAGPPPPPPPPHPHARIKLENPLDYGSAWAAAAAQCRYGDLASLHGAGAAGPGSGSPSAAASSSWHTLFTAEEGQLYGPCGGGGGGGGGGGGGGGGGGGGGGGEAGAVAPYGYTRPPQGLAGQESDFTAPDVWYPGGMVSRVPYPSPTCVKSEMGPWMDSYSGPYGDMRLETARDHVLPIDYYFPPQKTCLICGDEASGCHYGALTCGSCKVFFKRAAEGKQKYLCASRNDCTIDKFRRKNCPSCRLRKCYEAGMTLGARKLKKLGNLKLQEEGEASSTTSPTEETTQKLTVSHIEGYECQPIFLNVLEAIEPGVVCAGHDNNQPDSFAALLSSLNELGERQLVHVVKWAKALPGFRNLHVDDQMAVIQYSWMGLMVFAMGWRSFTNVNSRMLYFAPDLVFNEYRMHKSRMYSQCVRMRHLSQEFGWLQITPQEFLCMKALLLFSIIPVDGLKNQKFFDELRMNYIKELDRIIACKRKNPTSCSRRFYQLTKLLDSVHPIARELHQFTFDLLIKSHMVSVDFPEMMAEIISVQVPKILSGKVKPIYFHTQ
Assay: Functional assay of androgen receptor antagonism (MMTV luciferase reporter in MDA-kb2 cells, dihydrotestosterone-stimulated)
Condition Description: antagonism of AR trans-activation induced by 0.3 nM dihydrotestosterone
pIC50: −log10 of the molar value.
Readout Kind: pIC50

chemical_smiles=Cc1ccccc1/C=C/c1ccc2c(c1)NC(=O)CO2 target_of_assay="AR (Homo sapiens, UniProt P10275)" test_result=6.86
chemical_smiles=Cc1c(-c2csc(-c3ccccc3C(F)(F)F)n2)ccc2c1NC(=O)CO2 target_of_assay="AR (Homo sapiens, UniProt P10275)" test_result=7.28

This collection of values is drawn from patent US20090054417A1.
